- Test Details: PET hydrolysis, aromatic products released after 48 h (umol product/mg enzyme); higher = more PET depolymerization activity
- Condition Parameters: substrate: cryPow; 40 °C; pH 7.5
So I've got a bunch of sequences here, and I need their PET hydrolysis values.
Numbers only.

Worked examples, 2 sequences total:
DQIGQAPTASNITGNGSFATTSASISSTVSGFGGGRVYYPTAAGTYPVIAISPGFTATWSSLAWIGPRLSSWGFVVVGIETNSIYDQPASRGNQLLAALNWAVNSSPTAVRSHVDGSRRGVAGHSMGGGGTLEALAADTTGLVKAGVPLAPWNTDKTWNNVSEPVLIVGGQADTVAPVASHSIPFYNTLAGPKTYVELTGQSHFFPQTTNATASRALVAWFKRWVSQDSRFTPFTCGFSGVAVSDFRSNAC [ESM082] :: 36
APDTVVGNPFARGPDPTKESIEAERGPFAVATEKVPGGKGFGGGTIHYPTDTSQGTFGAIAVAPGFTESESAIAWYGPRLASQGFVVITISTNGLWDLPASRADQLLAALRHVTDASQIKSRVDRDRLAVMGHSMGGGGSLIAARNNPALKATIPLTGWNPNTSFSDLKVPTFVVSAQNDFIAPDGSHSRPFYQSLPASLNKAYMRLAGVGHMAPVNPNVTIAKYSISWLKRFVDNDTRYSQFLCPLPTGDPKIAAYEGTCPLS [DP008] :: 40

Q: Tell me the measured PET hydrolysis of VQIGPNPTKSSLEASRGPFSTSQFTVSRPSGYGAGTVYYPTNAGAKVGAIAIVPGFLSYQSSINWWGPRLASHGFVVITIDTYTTGDQPDSRSRQQLAALDQVIALGNTSSSPIYGKVDGSRTGVMGWSMGGGGSLISAKNRPSIKAAAPQAPWNTSTNFSSVTVPTLIFACQSDIVAPVISHAIPFYNSMTRNPKQYLEKTLGDHFCFNNANATVGLKGVAWMKRFVDGDTRYTSFACSNPNAFGFSDFRTARCS [ESM045] , please.
Result: 35

---

Task for the reader: assign each of the following sequences its reported PET hydrolysis.
- Test Details: PET hydrolysis, aromatic products released after 48 h (umol product/mg enzyme); higher = more PET depolymerization activity
- Condition Parameters: substrate: cryPow; 40 °C; pH 7.5

Use the examples below as a reference point.
TAGAEPSGGAPAAGGSGCGDVADPAAQGPLHVQTYSSGLRDGPDYGSQTMHYPTDGAPPYPALVIVPGFMSLESSIADHGPHFASHGIVTLTIGTNSTMDQPPARSEALLDALETIRAEHTRAGGPLEGKLDLSRLGVMGWSMGGGGTLITVDDHPELKAAITLCAWNPGQTYRNNQVPTLLFAGTADTLAGG [TEP195] :: < 3
QPTLESLGNPGPYQVAYYDQLPEVDEYGAATLYFPANRGTDFGGVAIAPGFIEQQENIEWWGRHLASYGFAVLVLDTNNPRDDPQVRSEALLAALDVIRGEGARSGSPIRGKILNDRMAVMGHSMGGGGTLLAANRASDQLKAIIPFTPWLPNADFSSVAVPTLVLAGEVDRIASVAEHAWPHFQTLPEGIPRMYVEIAGGNHFIANSTTDQERLNPNIDVHDLVGALGVAWLKYFVDGDEDYRDLIYGELPAEQRARLSRFEFVQ [TEP107] :: < 3
SNPTPTPTPTPTPTPTPGNNPFQRGPNPTLSFIEANSGPYSVRTSRVSSYTSGFGGGTIHYPTGQSGTMGAIVVIPGFVSAESSIEWWGPKLASHGFVVMTIDTNSGFDQPPSRARQINAALDYLVAQNRSSRSPVRGMIDTNRLGVVGWSMGGGGTLRVASEGRIKAAIPLAPWDTTSFRNVKAPTLIFACESDVIAPVGQHASPFYNELPSNISKAFVELNGGSHYCGNGGNSYNDVLSRFGVSWMKRFLDNDTRYSQFLCGPNHTSDRDISEYRGNCNY [ESM042] :: < 3
APPARVAALATTAYQRGPAPTLSGVRAALGPFSYSTASVSAAATGYTFGGGTVYYPDDTSQGTFGGIAVTPGYTGTEGSIAWLGPRLASQGFVVITIATKSLYDQPTARGQQLLAALDYLKTYSPAAVRQRLDPQRLAVSGHSMGGGGALYAVWSRPSLKAAVPLAPYHTIKNWSAITVPTLIEAGTADTVTPVGTFAEPIYQSLTGASERAYAEVAGANHLTFTAENPLIGGLEVAWMKRFVDDDARYDQFLCPAPTDPGLTEYRDSCPTS [TEP101] :: 24
EEPASGYQRGPAPTTSSIESSRGPFSTSQVSISGLSANGFGGADVYYPTDTSQGTFGAVAISPGYTARKSSMAWLASRLASQGFVVINIDTNTTSDQPASRGRQLLAALDQVTKDSRVANRIDPTRLAVVGHSMGGGGALEASRSRPSLQAAIPLTPWNTTKSFSGNQVPTLVVGAERDTVASVRSHAEPFYRSLPSAPGKAYLELAGASHFAPNTSNTTIAKHSIAWLKLFVDNDERYRQFVCPGPTSDRAVSDYQNTCSSFTP [DP053] :: < 3
ADNPYQRGPDPTPQSISAPTGPFATASVTVPRQGNFGGGVIYYPTDTSQGTFGAVAISPGLNGTWPGIAWLGPRLSSQGFVVFGIDTLGLSDSTASRGSQLLAALDYLTQTSSVRTRVDSSRLAVAGHSMGGGGAFEAALRRPALKAAIPNAPFFPGSASNVRVPTLITAMQNDSLVGQNRNAYNGIPAGVEKAYVELAGAGHNQIGQPTTAIARNWIPWLKIFVDSDARYHQFLCPTTDMSGLSQYLNTCPLISTTPPTSSPSAQPTTPGPTGPPPGGACAATYRTVNSWSDGYQGEMTVQAGSSAINGWTVRWTMSGGQTISQVWNGTLVAGSGAAAVRNVAYNGSLAAGASTTFGFISSGTPSATSITCGSP [ESM081] :: 82
QSNPYERGPAPTESSIEATRGSFSVSDKNVSSFSASGFGGGTIYYPTDTSQGTFGGVAISPGFTAGESSIAWLGPRIASQGFVVITIDTNSRYDQPNSRADQLQAALDHIVADSTVGSRIDPNRLAVMGHSMGGGGSLKAAEDNADLQAAVPLQPWHTQKNWSDVEVPTLIIGAENDSVASVTTHSKPFYTSLPDDLDKAYLELDGASHFVSNTPDTTTAKYSISWLKRFVDDDTRYEQFLCPAPDDRTISEYRDTCPHSGGGGTTPTTTPTTLPPDDDCAWWQWWC [DP057] :: 29
ADNPYERGPNPTESLIEAARGPFATSQTTVSSLSVTGFGGGVIYYPTDTSQGTFGGIAISPGYTAAWSSLDWLGPRLASHGFVVIGIETNTRLDQPASRGDQLLAALDYLTQRSSVRSRVDATRLAVAGHSMGGGGSLEAAKDRTSLKAAIPLAPWNTDKTWPEVRTPTLIIGGESDTVAPVSSHSIPFYTSLTSAREKAYLELDNASHFFPQTSNTTMAKYMISWMKRYIDNDTRYEQFLCPGPSTGLLSGISDWRQTCPGS [TEP073] :: < 3
VQIGPAPTKASLEASRGPFTVATTRLSANGHGGGTIYYPTNAGAKVGVIAIVPGYLSYQSSIEWWGPRLASHGFAVVTIDTLTIYDQPSSRSSQQLRALDQVVALGSKSTSPLYNKVDGSRTGVMGWSMGGGGSLISAQNRPSIKAAAPQAPWNTTSNFSSLTVPTLIFACQADVVAPILSHAVPFYNSMSRNPKQYLERTAGDHFCFNNANPTVGLKGVAWMKRFIDGDTRYTSFACSNPNALGFSSFRTERCS [ESM053] :: 32

--- query ---
Q: If you can, please state the reported PET hydrolysis value of ASPYQRGPNPTAASIAATTGPFAIASITVPRGNGFGGGVIYYPTSTSQGTFGGIAISPGLNGTWSGISWLGPRLASQGFVVFGIETNNLNDSPTSRGTQLLAALDYLTQRSSVRSRLDANRLAVMGHSMGGGGALDAALRRPTLKATIGNAPHLPSGSLANDRVPTLIYAMQNDTLVTPARLTSLYNTIPAATERAYIEVTGAGHNYIGQPSTTLARTMIPWLKIFIDSDTRYAPFLCPLNDRSGIRQYRNSCPLI [ESM128] .
Result: 110
